Recorded values, source patent US20220356174A1.

- tgt: FL-SMARCA2 (full-length human SMARCA2 isoform 1) (Homo sapiens, UniProt P51531)
- Construct: FLAG tag (YKDDDDK) (C); made in house; host or cells: Sf21 insect cells (baculovirus, pFastBacI)
- Sequence (P51531 with tags, fused parts or gaps): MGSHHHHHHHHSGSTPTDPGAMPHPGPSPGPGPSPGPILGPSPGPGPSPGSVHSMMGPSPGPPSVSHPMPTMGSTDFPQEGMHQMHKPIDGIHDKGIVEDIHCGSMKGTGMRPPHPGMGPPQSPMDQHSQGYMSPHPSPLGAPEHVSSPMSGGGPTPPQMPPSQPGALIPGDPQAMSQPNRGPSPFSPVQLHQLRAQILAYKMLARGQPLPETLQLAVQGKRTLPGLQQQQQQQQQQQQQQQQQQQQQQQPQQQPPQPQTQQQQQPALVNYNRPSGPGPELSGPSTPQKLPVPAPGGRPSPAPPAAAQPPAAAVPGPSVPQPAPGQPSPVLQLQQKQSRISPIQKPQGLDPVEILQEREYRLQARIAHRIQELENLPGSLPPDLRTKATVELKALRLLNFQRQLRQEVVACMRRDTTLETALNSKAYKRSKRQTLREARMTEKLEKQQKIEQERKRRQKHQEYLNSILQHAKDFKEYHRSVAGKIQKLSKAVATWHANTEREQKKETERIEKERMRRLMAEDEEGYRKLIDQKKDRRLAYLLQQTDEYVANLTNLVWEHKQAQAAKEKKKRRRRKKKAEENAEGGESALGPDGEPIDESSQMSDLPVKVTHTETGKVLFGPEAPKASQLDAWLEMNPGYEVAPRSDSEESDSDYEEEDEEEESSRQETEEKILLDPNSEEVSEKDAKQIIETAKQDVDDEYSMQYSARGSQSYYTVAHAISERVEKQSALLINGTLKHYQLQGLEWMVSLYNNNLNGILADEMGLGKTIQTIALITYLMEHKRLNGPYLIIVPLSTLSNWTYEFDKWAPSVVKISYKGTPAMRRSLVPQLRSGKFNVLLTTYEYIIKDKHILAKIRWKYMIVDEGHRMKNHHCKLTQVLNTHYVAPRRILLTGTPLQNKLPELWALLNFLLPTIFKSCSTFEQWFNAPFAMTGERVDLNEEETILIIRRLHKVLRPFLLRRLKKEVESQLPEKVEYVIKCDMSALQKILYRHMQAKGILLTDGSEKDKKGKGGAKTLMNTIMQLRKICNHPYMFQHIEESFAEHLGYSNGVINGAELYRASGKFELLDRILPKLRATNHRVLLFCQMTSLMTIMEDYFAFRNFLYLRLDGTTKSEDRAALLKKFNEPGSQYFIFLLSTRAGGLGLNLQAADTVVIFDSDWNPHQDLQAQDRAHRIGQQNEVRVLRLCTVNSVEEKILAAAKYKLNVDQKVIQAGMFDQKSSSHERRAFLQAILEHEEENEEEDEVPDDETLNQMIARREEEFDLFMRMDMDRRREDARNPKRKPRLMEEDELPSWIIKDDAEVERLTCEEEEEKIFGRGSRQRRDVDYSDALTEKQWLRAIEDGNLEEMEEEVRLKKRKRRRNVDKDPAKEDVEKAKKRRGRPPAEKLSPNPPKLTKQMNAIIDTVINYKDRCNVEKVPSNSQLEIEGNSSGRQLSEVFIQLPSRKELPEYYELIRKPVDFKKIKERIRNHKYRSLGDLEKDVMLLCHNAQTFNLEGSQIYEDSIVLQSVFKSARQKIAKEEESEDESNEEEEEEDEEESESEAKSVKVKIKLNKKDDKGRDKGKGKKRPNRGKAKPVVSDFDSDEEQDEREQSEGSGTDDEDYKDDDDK
- test: SMARCA2 ATPase activity assay (ADP-Glo, chicken mononucleosome substrate)
- Format: biochemical
- assayContext: Table 3c.1; ATPase assay, enzyme 5 nM, ATP 250 uM, chicken mononucleosome 10 nM, 30 min preincubation
measuredProperty: IC50 (nM)

O=C(Nc1ccc(=O)n(CC(F)F)c1)c1cc(F)c(Cl)s1 [Compound 45c]    98.1
N#Cc1ccc(C#Cc2cc(C(=O)Nc3cc(F)c(=O)n(CC(F)F)c3)sc2Cl)cc1 [Compound 43c]    130
Cc1ncc(C#Cc2cc(C(=O)Nc3cc(F)c(=O)n(CC(F)F)c3)sc2Cl)s1 [Compound 39c]    78
O=C(Nc1cc(F)c(=O)n(CC(F)F)c1)c1cc(C#CC2COC2)c(F)s1 [Compound 108c]    81.8

====

- tgt: FL-SMARCA2 (full-length human SMARCA2 isoform 1) (Homo sapiens)
- Construct: FLAG tag (YKDDDDK) (C); made in house; host or cells: Sf21 insect cells (baculovirus, pFastBacI)
- test: SMARCA2 ATPase activity assay (ADP-Glo, chicken mononucleosome substrate)
- Assay type: biochemical
- assayContext: Table 3c.1; ATPase assay, enzyme 5 nM, ATP 250 uM, chicken mononucleosome 10 nM, 30 min preincubation
measuredProperty: IC50 (µM)

O=C(Nc1cc(F)c(=O)n(CC(F)F)c1)c1cc(C#Cc2ccccc2)c(Cl)s1 [Compound 41c]    0.0827
CN(C)Cc1ncc(C#Cc2cc(C(=O)Nc3cc(F)c(=O)n(CC(F)F)c3)sc2Cl)n1C [Compound 148c]    0.146
Cn1cc(C#Cc2cc(C(=O)Nc3cc(F)c(=O)n(CC(F)F)c3)sc2Cl)cn1 [Compound 5c]    0.0285

====

- tgt: FL-SMARCA4 (Homo sapiens)
- test: SMARCA4 ATPase activity assay (ADP-Glo, chicken mononucleosome substrate)
- assayContext: FL-SMARCA4 IC50, Table 3.2; ATPase assay, enzyme 5 nM, ATP 250 uM, chicken mononucleosome 10 nM, 30 min preincubation
Below, each entry is listed alongside its reported IC50.
measuredProperty: IC50

CCn1cc(NC(=O)c2cn(C)nc2C(F)(F)F)ccc1=O    > 50 µM
O=C(Nc1cc(F)c(=O)n(CCF)c1)c1cc(Cl)c(Cl)[nH]1    0.759 µM
CCn1cc(NC(=O)c2cc(C)sc2C)ccc1=O    > 50 µM
CCn1cc(NC(=O)c2cc(Cl)c(Cl)[nH]2)ccc1=O    26.6 µM
CSc1cc(C(=O)Nc2cc(F)c(=O)n(CC(F)F)c2)sc1Cl    9.28 µM
CCn1cc(NC(=O)c2cc(C)oc2C)ccc1=O    > 50 µM
CNC(=O)c1ccc(C(=O)Nc2cc(F)c(=O)n(CCF)c2)s1    > 50 µM
O=C(Nc1cc(F)c(=O)n(CCF)c1)c1cc(CO)c(Cl)s1    > 50 µM
COCCn1cc(NC(=O)c2nc(C)n(-c3ccccc3Cl)n2)ccc1=O    > 50 µM
CCn1cc(NC(=O)c2cc(C3CC3)on2)ccc1=O    > 50 µM

====

- tgt: FL-SMARCA4 (Homo sapiens)
- test: SMARCA4 ATPase activity assay (ADP-Glo, chicken mononucleosome substrate)
- assayContext: FL-SMARCA4 IC50
pIC50: −log10 of the molar value.
measuredProperty: pIC50

CCn1cc(NC(=O)C(=O)c2ccc(Cl)s2)ccc1=O    < 4.30
CCn1nc(NC(=O)c2cc(Cl)c(Cl)s2)ccc1=O [Compound 19d]    < 4.30
O=C(Nc1ccc(=O)n(CC(F)(F)F)n1)c1cc(Cl)c(Cl)s1 [Compound 21d]    < 4.30

====

- tgt: FL-SMARCA4 (Homo sapiens, UniProt P51532)
- Sequence (P51532 whole entry): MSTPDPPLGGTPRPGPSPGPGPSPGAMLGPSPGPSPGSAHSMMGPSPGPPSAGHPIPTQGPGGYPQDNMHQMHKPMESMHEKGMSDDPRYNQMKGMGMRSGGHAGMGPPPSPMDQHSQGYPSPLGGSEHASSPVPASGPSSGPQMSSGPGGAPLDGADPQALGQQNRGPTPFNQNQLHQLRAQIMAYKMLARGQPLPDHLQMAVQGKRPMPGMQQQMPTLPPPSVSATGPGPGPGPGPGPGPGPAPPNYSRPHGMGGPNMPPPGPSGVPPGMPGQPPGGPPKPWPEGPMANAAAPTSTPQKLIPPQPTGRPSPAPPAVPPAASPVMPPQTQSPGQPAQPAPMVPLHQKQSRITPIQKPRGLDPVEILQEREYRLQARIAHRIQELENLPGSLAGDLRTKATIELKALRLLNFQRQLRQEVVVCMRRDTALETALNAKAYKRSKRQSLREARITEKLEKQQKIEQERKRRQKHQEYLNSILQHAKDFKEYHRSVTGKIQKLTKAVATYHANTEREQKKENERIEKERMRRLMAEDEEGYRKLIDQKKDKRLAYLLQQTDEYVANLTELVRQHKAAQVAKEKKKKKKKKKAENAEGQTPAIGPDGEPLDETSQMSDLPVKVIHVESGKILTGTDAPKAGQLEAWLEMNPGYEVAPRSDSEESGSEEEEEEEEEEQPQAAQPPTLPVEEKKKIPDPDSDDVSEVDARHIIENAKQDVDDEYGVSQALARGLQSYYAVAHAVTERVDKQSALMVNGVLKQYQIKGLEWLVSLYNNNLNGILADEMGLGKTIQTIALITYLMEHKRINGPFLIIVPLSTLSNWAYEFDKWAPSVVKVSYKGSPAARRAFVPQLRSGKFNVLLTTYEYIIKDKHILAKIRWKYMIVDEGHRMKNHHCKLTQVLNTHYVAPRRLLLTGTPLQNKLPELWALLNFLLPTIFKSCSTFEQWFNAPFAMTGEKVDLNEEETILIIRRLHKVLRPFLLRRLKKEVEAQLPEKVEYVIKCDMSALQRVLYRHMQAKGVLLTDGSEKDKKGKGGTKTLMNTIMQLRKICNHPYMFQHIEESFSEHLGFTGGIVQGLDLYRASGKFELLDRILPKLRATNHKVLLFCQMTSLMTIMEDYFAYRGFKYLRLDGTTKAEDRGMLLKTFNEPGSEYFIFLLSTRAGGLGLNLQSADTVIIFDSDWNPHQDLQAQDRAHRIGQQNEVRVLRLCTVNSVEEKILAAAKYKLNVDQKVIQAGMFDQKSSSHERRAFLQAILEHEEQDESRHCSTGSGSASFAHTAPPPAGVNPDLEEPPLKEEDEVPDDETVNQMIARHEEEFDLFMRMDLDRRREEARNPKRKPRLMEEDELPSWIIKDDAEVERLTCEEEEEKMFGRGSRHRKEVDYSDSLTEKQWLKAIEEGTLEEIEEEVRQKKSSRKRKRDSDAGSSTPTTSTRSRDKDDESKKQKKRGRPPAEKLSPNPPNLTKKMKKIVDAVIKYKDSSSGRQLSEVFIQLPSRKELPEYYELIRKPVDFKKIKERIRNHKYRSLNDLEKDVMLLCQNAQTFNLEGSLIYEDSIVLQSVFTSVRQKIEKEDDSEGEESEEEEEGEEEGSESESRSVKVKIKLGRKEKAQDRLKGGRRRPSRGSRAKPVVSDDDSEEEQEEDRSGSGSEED
- test: SMARCA4 ATPase activity assay (ADP-Glo, chicken mononucleosome substrate)
- assayContext: FL-SMARCA4 IC50, Table 3.2; ATPase assay, enzyme 5 nM, ATP 250 uM, chicken mononucleosome 10 nM, 30 min preincubation
Mark each entry Satisfied if its IC50 sits below 2 µM, and Not satisfied for all others.

CCn1cc(NC(=O)c2ccc(C)n2C(F)F)ccc1=O    Not satisfied
CCn1cc(NC(=O)c2csc(C(N)=O)n2)ccc1=O    Not satisfied
CCn1cc(NC(=O)c2cc(Cl)c(Cl)s2)cc(OCCN2CCN(C)CC2)c1=O    Not satisfied
Cc1cc(NC(=O)c2cc(Cl)c(Cl)s2)cn(C)c1=O    Not satisfied
CN(C)C(=O)c1cc(C(=O)Nc2cc(F)c(=O)n(CCF)c2)sc1Cl    Not satisfied
O=C(Nc1cc(F)c(=O)n(CCF)c1)c1cnc(NC2CCCC2)s1    Not satisfied
CS(=O)(=O)c1csc(C(=O)Nc2cc(F)c(=O)n(CCF)c2)c1    Not satisfied
CCn1cc(NC(=O)c2cnc(Cl)s2)cc(F)c1=O    Satisfied
N#Cc1cc(C(=O)Nc2ccc(=O)n(CCF)c2)sc1Cl    Satisfied
CCn1cc(NC(=O)c2cn(C)c(Cl)n2)ccc1=O    Not satisfied
Cn1nc(C#N)cc1C(=O)Nc1cc(F)c(=O)n(CCF)c1    Not satisfied
O=C(Nc1cc(F)c(=O)n(CCF)c1)c1cc(Cl)c(C(F)F)s1    Satisfied
O=C(Nc1cc(F)c(=O)n(CCF)c1)c1cnc([N+](=O)[O-])s1    Not satisfied
CCn1cc(NC(=O)c2cc(Cl)c(Cl)n2CCF)ccc1=O    Not satisfied
COc1ccc(Cn2c(C(=O)Nc3ccc(=O)n(CCF)c3)cc(Cl)c2C#N)cc1    Not satisfied
N#Cc1ncc(C(=O)Nc2cc(Cl)c(=O)n(CC(F)(F)F)c2)s1    Satisfied
O=C(Nc1cc(F)c(=O)n(CC(F)(F)F)c1)c1cc(Cl)c(Cl)[nH]1    Satisfied
CCCn1c(C(=O)Nc2ccc(=O)n(CC)c2)cc(Cl)c1Cl    Not satisfied
CCn1cc(NC(=O)c2csnn2)ccc1=O    Not satisfied
CCn1cc(NC(=O)c2cc(C#N)c(Cl)s2)ccc1=O    Satisfied
O=C(Nc1cc(F)c(=O)n(CCF)c1)c1cc(Cl)c(F)s1    Satisfied
CCn1cc(NC(=O)c2nc(-c3ccc(OC)cc3)oc2C)ccc1=O    Not satisfied
CCn1cc(NC(=O)c2cc(-c3cn(C)cn3)c(Cl)s2)ccc1=O    Not satisfied
O=C(Nc1cc(F)c(=O)n(CC(F)F)c1)c1cc(C#Cc2cncnc2)c(Cl)s1    Satisfied
O=C(Nc1cc(F)c(=O)n(CC(F)(F)F)c1)c1cnc(Cl)o1    Not satisfied
O=C(Nc1cc(F)c(=O)n(CCF)c1)c1cnc(Cl)o1    Not satisfied
O=C(Nc1cc(F)c(=O)n(CCF)c1)c1cc(Cl)c(CC(F)(F)F)s1    Not satisfied
CCn1cc(NC(=O)c2cc(Cl)[nH]c2Cl)ccc1=O    Not satisfied
CCn1cc(NC(=O)c2cc(C#N)[nH]n2)ccc1=O    Not satisfied
CCn1cc(NC(=O)c2cc(Cl)c(Cl)n2C)cc(Cl)c1=O    Not satisfied
CC(C)Cn1cc(NC(=O)c2cc(Cl)c(Cl)s2)ccc1=O    Not satisfied
CCn1cc(NC(=O)c2cnc(-c3ccc4c(c3)CCO4)s2)ccc1=O    Not satisfied

====

- tgt: FL-SMARCA2 (full-length human SMARCA2 isoform 1) (Homo sapiens, UniProt P51531)
- Construct: FLAG tag (YKDDDDK) (C); made in house; host or cells: Sf21 insect cells (baculovirus, pFastBacI)
- test: SMARCA2 ATPase activity assay (ADP-Glo, chicken mononucleosome substrate)
- Assay type: biochemical
- assayContext: Table 3a.1; SMARCA2 5 nM, ATP 250 uM, mononucleosome 10 nM
pIC50: −log10 of the molar value.
measuredProperty: pIC50

CN1CC(C(=O)Nc2cc(F)c(=O)n(CCF)c2)CC1=O (stereo not shown) [Compound 51a]    < 4.30
O=C(Nc1cc(F)c(=O)n(CC(F)F)c1)c1cnc(C(F)(F)F)c(F)c1 [Compound 69a]    5.81
CO[C@@H]1CN[C@H](C(=O)Nc2cc(Br)c(=O)n(C)c2)C1    < 4.30
O=C(Nc1cc(F)c(=O)n(CCF)c1)N1CCCC1 [Compound 52a]    < 4.30
CCn1cc(NC(=O)c2c[nH]c3ccccc23)ccc1=O [Compound 22a]    < 4.30
CCn1cc(NC(=O)c2sc3ccccc3c2C)ccc1=O [Compound 40a]    < 4.30
O=C(Nc1ccc(=O)n(CC(F)(F)F)c1)c1nc2cc(F)c(Cl)cc2s1 [Compound 44a]    4.37
COc1ccc2[nH]c(C(=O)Nc3c[nH]c(=O)c(C)c3)cc2c1    < 4.30
CCn1cc(NC(=O)c2ccc(C(F)(F)F)cn2)ccc1=O [Compound 58a]    < 4.30
CCn1cc(NC(=O)c2ccc(=O)n(-c3ccccc3F)n2)ccc1=O    < 4.30
O=C(Nc1cc(F)c(=O)n(CCF)c1)c1ncccn1 [Compound 55a]    < 4.30
CCn1cc(NC(=O)c2cc(C(F)(F)F)ccn2)ccc1=O [Compound 59a]    < 4.30
CCn1cc(NC(=O)c2cccc(Cl)n2)ccc1=O [Compound 25a]    < 4.30
COc1ccc2cc(C(=O)Nc3cc(F)c(=O)n(CCF)c3)[nH]c2c1 [Compound 65a]    5.31
CCn1cc(NC(=O)[C@H]2CCC(=O)N(C)[C@@H]2c2ccncc2)ccc1=O    < 4.30
CN1C(=O)CCCC1C(=O)Nc1cc(F)c(=O)n(CCF)c1 (stereo not shown) [Compound 48a]    < 4.30
